# assaySystem: Ubiquitin carboxyl-terminal hydrolase 1/WD repeat-containing protein 48 (Homo sapiens, UniProt O94782)
# Sequence (O94782 whole entry): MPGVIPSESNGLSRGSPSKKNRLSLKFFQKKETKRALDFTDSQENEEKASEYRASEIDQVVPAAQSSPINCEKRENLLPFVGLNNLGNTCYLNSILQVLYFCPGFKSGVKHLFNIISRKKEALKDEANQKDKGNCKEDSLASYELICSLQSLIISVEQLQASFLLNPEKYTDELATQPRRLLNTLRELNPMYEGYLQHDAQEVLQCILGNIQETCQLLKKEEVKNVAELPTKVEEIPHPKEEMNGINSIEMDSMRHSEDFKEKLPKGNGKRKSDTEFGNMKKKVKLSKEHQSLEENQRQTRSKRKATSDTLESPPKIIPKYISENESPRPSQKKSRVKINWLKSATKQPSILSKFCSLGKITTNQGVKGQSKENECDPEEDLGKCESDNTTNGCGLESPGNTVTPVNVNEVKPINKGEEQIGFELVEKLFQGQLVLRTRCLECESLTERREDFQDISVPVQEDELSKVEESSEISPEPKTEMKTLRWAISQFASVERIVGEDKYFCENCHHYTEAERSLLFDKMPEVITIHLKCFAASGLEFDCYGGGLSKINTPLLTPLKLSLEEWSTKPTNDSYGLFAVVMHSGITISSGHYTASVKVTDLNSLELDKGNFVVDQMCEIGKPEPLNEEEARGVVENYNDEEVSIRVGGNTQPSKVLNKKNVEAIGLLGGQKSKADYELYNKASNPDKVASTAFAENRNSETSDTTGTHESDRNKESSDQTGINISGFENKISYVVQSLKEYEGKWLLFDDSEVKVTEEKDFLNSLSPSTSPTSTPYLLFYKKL
# Sequence (Q8TAF3 whole entry, further chain): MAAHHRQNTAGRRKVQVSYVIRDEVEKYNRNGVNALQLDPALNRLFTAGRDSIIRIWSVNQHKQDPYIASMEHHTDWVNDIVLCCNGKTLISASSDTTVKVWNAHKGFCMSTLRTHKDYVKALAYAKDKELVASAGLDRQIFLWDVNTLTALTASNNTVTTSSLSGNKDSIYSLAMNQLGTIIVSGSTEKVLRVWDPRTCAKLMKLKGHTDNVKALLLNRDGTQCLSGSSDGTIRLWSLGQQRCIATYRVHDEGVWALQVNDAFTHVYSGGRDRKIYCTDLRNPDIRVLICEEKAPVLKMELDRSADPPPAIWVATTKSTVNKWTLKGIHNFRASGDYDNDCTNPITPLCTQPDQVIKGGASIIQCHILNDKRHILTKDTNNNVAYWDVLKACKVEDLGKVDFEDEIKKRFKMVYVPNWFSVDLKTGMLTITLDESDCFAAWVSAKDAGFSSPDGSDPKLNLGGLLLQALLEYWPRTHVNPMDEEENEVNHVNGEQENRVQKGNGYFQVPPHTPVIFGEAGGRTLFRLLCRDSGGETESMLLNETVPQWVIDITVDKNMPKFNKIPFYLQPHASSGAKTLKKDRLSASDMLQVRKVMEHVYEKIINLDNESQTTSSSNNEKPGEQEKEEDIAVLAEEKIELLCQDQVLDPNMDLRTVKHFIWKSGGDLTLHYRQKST
# assayRemarks: Inhibition of USP1-UAF1 complex (unknown origin) using Ub-7-amido-4-methylcoumarin as substrate incubated for 2 hrs by fluorescence based analysis
resultType: pIC50
Scale: negative log10 of molar concentration, which is what pIC50 denotes.

Solved entries:
[
  {
    "smilesRecord": "CC(C)n1cc(C(F)(F)F)nc1-c1ccc(Cn2c(=O)ccc3cnc(-c4ccccc4C(F)(F)F)nc32)cc1",
    "val": 6.71
  },
  {
    "smilesRecord": "CC(C)n1cc(C(F)(F)F)nc1-c1ccc(Cn2c(=O)ccc3cnc(-c4ccccc4F)nc32)cc1",
    "val": 6.08
  },
  {
    "smilesRecord": "COc1ncnc(C2CC2)c1-c1ncc2ccc(=O)n(Cc3ccc(-c4nc(C(F)(F)F)cn4CC4CC4)cc3)c2n1",
    "val": 7.95
  }
]

Q) For Cc1ccccc1-c1ncc2ccc(=O)n(Cc3ccc(-c4nc(C(F)(F)F)cn4C(C)C)cc3)c2n1 , write its pIC50.
A) 6.29

Q) Look up pIC50 of CC(C)c1ccccc1-c1ncc2ccc(=O)n(Cc3ccc(-c4nc(C(F)(F)F)cn4C(C)C)cc3)c2n1 and report it.
A) 7.47

Q) Note down pIC50 recorded for CC(C)n1cc(C(F)(F)F)nc1-c1ccc(Cn2c(=O)ccc3cnc(-c4ccccc4OC(F)(F)F)nc32)cc1
A) 7.40

----------
# assaySystem: Ubiquitin carboxyl-terminal hydrolase 1/WD repeat-containing protein 48 (Homo sapiens)
# assayRemarks: Inhibition of USP1-UAF1 complex (unknown origin) using Ub-7-amido-4-methylcoumarin as substrate incubated for 2 hrs by fluorescence based analysis
resultType: pIC50
For clarity, pIC50 is expressed as the negative log10 of concentration in mol/L.

Consider the worked cases shown below.
[
  {
    "compound": "COc1ncnc(C2CC2)c1-c1ncc2ccc(=O)n(C(C)c3ccc(-c4nc(C(F)(F)F)cn4C(C)C)cc3)c2n1 (stereo not drawn)",
    "assaySystem": "Ubiquitin carboxyl-terminal hydrolase 1/WD repeat-containing protein 48 (Homo sapiens)",
    "val": 7.08
  },
  {
    "compound": "COc1cccc(F)c1-c1ncc2ccc(=O)n(Cc3ccc(-c4nc(C(F)(F)F)cn4C(C)C)cc3)c2n1",
    "assaySystem": "Ubiquitin carboxyl-terminal hydrolase 1/WD repeat-containing protein 48 (Homo sapiens)",
    "val": 7.63
  },
  {
    "compound": "CC(C)n1cc(C(F)(F)F)nc1-c1ccc(Cn2c(=O)ccc3cnc(-c4ccccc4Cl)nc32)cc1",
    "assaySystem": "Ubiquitin carboxyl-terminal hydrolase 1/WD repeat-containing protein 48 (Homo sapiens)",
    "val": 6.14
  },
  {
    "compound": "COc1ncnc(C2CC2)c1-c1ncc2ccc(=O)n(Cc3ccc(-c4cccc(C(F)(F)F)n4)cc3)c2n1",
    "assaySystem": "Ubiquitin carboxyl-terminal hydrolase 1/WD repeat-containing protein 48 (Homo sapiens)",
    "val": 7.22
  }
]

Now for a further compound.
Q) Fill in reported pIC50 for this entry: COc1cc(-c2nc(C(F)(F)F)cn2C(C)C)ccc1Cn1c(=O)ccc2cnc(-c3c(OC)ncnc3C3CC3)nc21
A) 6.50

----------
# assayRemarks: Half life in male ICR mouse at 10 mg/kg, po administered as single dose and measured after 24 hrs
# Format: ADME, organism-based
# conditionParameters: in vivo
resultType: half-life (h)
Number in h, nothing else.

Q) Please give the documented half-life of COc1ncnc(C2CC2)c1-c1ncc2ccc(=O)n(Cc3ccc(-c4nc(C(F)(F)F)cn4C(C)C)cc3)c2n1
A) 7.61
